Assay: Relative bioavailability of voxilaprevir amorphous free acid tablets vs Form VI tablets, fasted and fed, healthy subjects (Table 3)
Assay type: in vivo, human
Conditions: human, in vivo, oral; single dose 100 mg; healthy subjects, fasted
Excerpt: Accordingly, a spray dried dispersion of voxilaprevir in the amorphous free acid form was selected for incorporation into the tablet formulation.

>  <Compound>
CC[C@@H]1[C@@H]2CN(C(=O)[C@H](C(C)(C)C)NC(=O)O[C@@H]3C[C@H]3CCCCC(F)(F)c3nc4ccc(OC)cc4nc3O2)[C@@H]1C(=O)N[C@]1(C(=O)NS(=O)(=O)C2(C)CC2)C[C@H]1C(F)F [voxilaprevir, Form VI, voxilaprevir]

>  <Unit descriptor>
ng·h/mL

>  <AUC(0-inf)>
326

$$$$
